Tested target: Fuc(a1-2)[GalNAc(a1-3)]Gal(b1-4)GlcNAc(b1-6)GalNAc
Protocol notes: glycan array binding signal (z-score within array); higher = stronger binding
Condition notes: glycan notation: IUPAC condensed, linker removed
Many of the other results were omitted from the sample, so the strongest signals are more common in it than they were.
Listing of recorded glycan array binding signal (z-score) by entry.

Query: I have this binder here, Cohesin-hDECTIN-1 (Homo sapiens) (protein) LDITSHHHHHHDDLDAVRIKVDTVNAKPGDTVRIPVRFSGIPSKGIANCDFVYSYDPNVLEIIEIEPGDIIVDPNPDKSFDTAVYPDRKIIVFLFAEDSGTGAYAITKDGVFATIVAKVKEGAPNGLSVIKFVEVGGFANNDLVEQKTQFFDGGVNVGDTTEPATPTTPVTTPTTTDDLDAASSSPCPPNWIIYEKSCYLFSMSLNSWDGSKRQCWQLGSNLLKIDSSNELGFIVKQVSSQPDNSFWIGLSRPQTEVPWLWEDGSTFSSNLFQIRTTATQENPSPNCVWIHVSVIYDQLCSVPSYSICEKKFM , and I need its recorded glycan array binding signal (z-score).
Response: 6.29

Query: Request the reported glycan array binding signal (z-score) associated with AT5G01260(PC)(40) (Arabidopsis thaliana), Q9LFB0 (protein) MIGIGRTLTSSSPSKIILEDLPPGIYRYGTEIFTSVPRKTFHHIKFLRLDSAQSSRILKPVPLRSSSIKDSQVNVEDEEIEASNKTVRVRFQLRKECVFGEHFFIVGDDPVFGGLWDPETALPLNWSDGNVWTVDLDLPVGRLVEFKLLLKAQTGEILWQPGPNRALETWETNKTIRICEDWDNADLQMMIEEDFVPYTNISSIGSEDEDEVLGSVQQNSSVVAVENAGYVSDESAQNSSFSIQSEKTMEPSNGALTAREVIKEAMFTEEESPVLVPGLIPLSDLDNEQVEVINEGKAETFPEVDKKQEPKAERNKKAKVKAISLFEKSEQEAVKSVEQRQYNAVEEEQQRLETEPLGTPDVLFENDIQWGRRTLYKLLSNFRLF
Response: -0.387
